Values from paper PMC6830296

Molecular target: Can2 (Cryptococcus neoformans, UniProt Q3I4V7)
Construct: recombinant, obtained in-house
Sequence (Q3I4V7 1-239): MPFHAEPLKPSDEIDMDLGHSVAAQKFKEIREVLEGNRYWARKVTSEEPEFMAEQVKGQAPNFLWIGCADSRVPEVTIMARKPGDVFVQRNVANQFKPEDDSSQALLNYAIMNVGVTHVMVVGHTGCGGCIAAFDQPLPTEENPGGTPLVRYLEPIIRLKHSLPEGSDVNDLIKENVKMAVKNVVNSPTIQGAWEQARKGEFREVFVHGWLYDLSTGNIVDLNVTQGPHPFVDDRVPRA
Type: biochemical
Conditions: read-out: KI (μM)^a / Can2
PROPERTY LABEL: Ki

CC(C)OP(N)(=O)c1ccccc1 (stereo not drawn) [compound 6, isopropyl (6)] : 0.1 µM

Could you now consider this next molecule?
Lab note: Can2 (Cryptococcus neoformans, UniProt Q3I4V7) assay, enter Ki for CCOP(N)(=O)c1ccccc1 (stereo not drawn) [compound 4, ethyl derivative 4] here
0.05 µM

====

Catalogue of Ki readings, one per entry.
Target: BpsCAβ (Burkholderia pseudomallei)
Construct: gene BPSL0372
Sequence (Q63Y17 1-256): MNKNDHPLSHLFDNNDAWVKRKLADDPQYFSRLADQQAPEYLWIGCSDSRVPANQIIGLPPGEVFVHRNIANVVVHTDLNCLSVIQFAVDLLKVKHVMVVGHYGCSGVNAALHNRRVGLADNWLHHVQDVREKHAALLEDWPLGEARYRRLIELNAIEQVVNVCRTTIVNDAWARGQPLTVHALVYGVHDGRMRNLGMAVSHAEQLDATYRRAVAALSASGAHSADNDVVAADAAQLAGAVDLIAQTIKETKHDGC
Assay type: biochemical
Settings: read-out: KI (μM)^a / BpsCAβ
Give the quantity in µM, number only.

CCCCOP(N)(=O)c1ccccc1 (centres unmarked) [compound 7, alkyl phosphonamidate 7] : 22.5
CC(C)OP(N)(=O)c1ccccc1 (centres unmarked) : 5.8
C#CCOP(N)(=O)c1ccccc1 (centres unmarked) [compound 10, propargyl phosphonamidate 10] : 18.9
CCOP(N)(=O)c1ccccc1 (centres unmarked) : 4.6
COP(N)(=O)c1ccccc1 (centres unmarked) [compound 3, methyl phosphonamidate 3] : 2.1

Entry NP(=O)(OCCCl)c1ccccc1 (centres unmarked) [compound 9, alkyl phosphonamidate 9] needs its Ki filled in; supply it.
32.7

Supply measured Ki of CCCOP(N)(=O)c1ccccc1 (centres unmarked) in your reply.
12.6

Tell me its Ki given NP(N)(=O)c1ccccc1 [compound 2, phenylphosphonic diamide 2] as the entry.
2.5
